# measured_target: human Fyn (Homo sapiens, UniProt P06241)
# Sequence (P06241 whole entry): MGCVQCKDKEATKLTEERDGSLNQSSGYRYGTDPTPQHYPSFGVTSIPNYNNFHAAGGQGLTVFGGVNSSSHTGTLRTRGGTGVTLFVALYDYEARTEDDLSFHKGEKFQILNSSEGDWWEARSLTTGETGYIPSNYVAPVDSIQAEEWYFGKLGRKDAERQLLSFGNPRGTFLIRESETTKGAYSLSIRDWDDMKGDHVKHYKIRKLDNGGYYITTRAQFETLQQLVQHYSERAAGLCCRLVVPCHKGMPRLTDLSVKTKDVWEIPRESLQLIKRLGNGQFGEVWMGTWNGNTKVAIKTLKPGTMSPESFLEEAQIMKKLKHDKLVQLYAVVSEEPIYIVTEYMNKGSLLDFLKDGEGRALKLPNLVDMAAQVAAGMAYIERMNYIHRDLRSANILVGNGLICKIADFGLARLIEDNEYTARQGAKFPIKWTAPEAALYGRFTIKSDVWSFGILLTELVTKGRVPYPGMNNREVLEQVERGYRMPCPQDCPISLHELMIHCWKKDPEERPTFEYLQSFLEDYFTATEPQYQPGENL
# experimental_details: C2: Fyn kinase assay
# Assay type: biochemical
# stated_conditions: 5 ng human Fyn, 1.0 μM unlabeled ATP, poly(Glu,Tyr) 4:1, 25° C., 10 minutes; read-out: C2: Fyn kinase pIC50 (converted)
Known IC50 of a selection of compounds
readout_kind: IC50

chemical_structure=C[C@H]1C(=O)NCCCOc2cc3c(ncnc3cc2O)Nc2c(ccc3c2OCO3)CN1C readout_kind=IC50 val="> 1 µM"
chemical_structure=CN1CCCCCOc2cc3c(ncnc3cc2OC[C@@H](O)CN2CCCCC2)Nc2c(ccc3c2OCO3)C1 readout_kind=IC50 val="< 0.001 µM"
chemical_structure=CN1CCCCCOc2cc3c(ncnc3cc2OCCCN2CCS(=O)(=O)CC2)Nc2c(ccc3c2OCO3)C1 readout_kind=IC50 val="< 1 µM"

###

Known IC50 of a selection of compounds
# measured_target: human Fyn (Homo sapiens, UniProt P06241)
# experimental_details: C2: Fyn kinase assay
# Format: biochemical
# stated_conditions: 5 ng human Fyn, 1.0 μM unlabeled ATP, poly(Glu,Tyr) 4:1, 25° C., 10 minutes; read-out: C2: Fyn kinase pIC50 (converted)
readout_kind: IC50

chemical_structure=CN1CCNCCCOc2cc3c(ncnc3cc2O)Nc2c(ccc3c2OCO3)C1 readout_kind=IC50 val="> 1 µM"
chemical_structure=COCCOCCOc1cc2ncnc3c2cc1OCCCCCN(C)Cc1ccc2c(c1N3)OCO2 readout_kind=IC50 val="< 0.001 µM"
chemical_structure=CN(CCO)CCCOc1cc2ncnc3c2cc1OCCCCCN(C)Cc1cc(Br)c2c(c1N3)OCO2 readout_kind=IC50 val="< 1 µM"
chemical_structure=CN1CCN(CCCOc2cc3ncnc4c3cc2OCCCCCN(C)Cc2ccc3c(c2N4)OCO3)CC1 readout_kind=IC50 val="0.000275 µM"
chemical_structure=COc1cc2ncnc3c2cc1OCCCCCN(C(=O)OCc1ccccc1)Cc1ccc2c(c1N3)OCO2 readout_kind=IC50 val="0.204 µM"
chemical_structure=CN1CCNCCCOc2cc3c(ncnc3cc2OCCCN2CCOCC2)Nc2c(ccc3c2OCO3)C1 readout_kind=IC50 val="< 1 µM"
chemical_structure=CN1CCCCCOc2cc3c(ncnc3cc2OCCCNCCO)Nc2c(ccc3c2OCO3)C1 readout_kind=IC50 val="0.00617 µM"
chemical_structure=CN1CCN(CCCOc2cc3ncnc4c3cc2OCCCCCNCc2cc(Br)c3c(c2N4)OCO3)CC1 readout_kind=IC50 val="< 1 µM"
chemical_structure=COc1cc2ncnc3c2cc1OCCCNCCN(C)Cc1ccc2c(c1N3)OCO2 readout_kind=IC50 val="0.0398 µM"
chemical_structure=CN1CCCCCOc2cc3c(ncnc3cc2OCCCN2CCN(CCO)CC2)Nc2c(cc(Br)c3c2OCO3)C1 readout_kind=IC50 val="< 1 µM"
chemical_structure=CN1CCCCCOc2cc3c(ncnc3cc2OCCCN2CCOCC2)Nc2c(ccc3c2OCO3)C1 readout_kind=IC50 val="< 0.001 µM"
chemical_structure=CN1CCCCCOc2cc3c(ncnc3cc2OCCCNC(=O)OC(C)(C)C)Nc2c(ccc3c2OCO3)C1 readout_kind=IC50 val="< 1 µM"
chemical_structure=CN1CCC(COc2cc3ncnc4c3cc2OCCCCCN(C)Cc2ccc3c(c2N4)OCO3)CC1 readout_kind=IC50 val="> 1 µM"
